system: Puccinia recondita tritici (leaf rust); assay: Plant pathology screen (Test 1), leaf rust on wheat; settings: in Triticum aestivum, foliar, read-out: LEAF RUST control rating
pest or weed control at 400 µg/mL overview

>  <molecule>
Cc1oc2ncnc(Oc3ccc(C#N)cc3)c2c1C [Example 36]

>  <pest or weed control at 400 µg/mL>
0 to 19%

$$$$
>  <molecule>
Cc1cc2c(NCCc3ccc(Cl)cc3)ncnc2o1 [Example 6]

>  <pest or weed control at 400 µg/mL>
0 to 19%

$$$$
>  <molecule>
CCOc1ccc(CCNc2ncnc3oc(C)cc23)cc1 [Example 9]

>  <pest or weed control at 400 µg/mL>
90 to 100%

$$$$
>  <molecule>
Cc1oc2ncnc(NCCC3=CCCCC3)c2c1C [Example 72]

>  <pest or weed control at 400 µg/mL>
90 to 100%

$$$$
>  <molecule>
COc1ccc(CCOc2ncnc3oc(C)c(C)c23)cc1 [Example 52]

>  <pest or weed control at 400 µg/mL>
90 to 100%

$$$$
>  <molecule>
COc1ccc(CCOc2ncnc3oc(C)cc23)cc1 [Example 40]

>  <pest or weed control at 400 µg/mL>
90 to 100%

$$$$
>  <molecule>
COc1ccc(CCNc2ncnc3oc(C)c(C)c23)cc1OC [Example 25]

>  <pest or weed control at 400 µg/mL>
20 to 89%

$$$$
